# Target Desc: VP1 capsid protein on BKV pseudovirions of genotype II (GBR-12; AB263920) (BK virus genotype II (GBR-12))
# Procedure Details: cell-based or functional assay
Recorded Neutralization PSV IC50, one value per entry.
Test Readout: Neutralization PSV IC50 (ng/mL)

antibody E9P7 (antibody, V domains shown) VH: EVQLVESGGGLVQPGGSLRLSCTASGFTFRSYTMDWVRQAPGKGLEWVSCISGSSNHKYYADSVRGRFTISRDNAKNSLLLQMNSLRAEDSAVYYCAREDDILTPLYGMDVWGPGTTVTVSS VL: EIVLTQSPDTLSLSPGARATLSCRASQSVRSNYLAWYQQKPGQAPRLLIYGASSRATAIPDRFSGSGSGTDFTLTITRLEPEDFAVYYCHQYGSSPRTFGQGTKVEIK: 0.3
antibody C6P7 (antibody, V domains shown) VH: QVQLQESGPGLVRPSQTLSLTCTVSGGSMTSGSYYWSWIRQPAEKGLEWIGRIYTSGRTDYNPSLKSRVAMSIDTSKNQFSLRLTSVTAADTAVYYCARWGDSSAYYYVGDPWGRGTPVTVSS VL: DIQMTQSPSSLSASIGDRVTITCRASQNINTYLYWYQQKPGKAPQLLIYAASNLQTGAPSRFSGSGSGTDFTLTISSLQPADFATYYCQQSFSLPHTFGQGTKVEIK: 0.2
antibody G7P3 (antibody, V domains shown) VH: EVQLVESGGGLVQPGGSLRLSCAASGFSFGSYSMNWVRQAPGKGLEWVSHISSGSSSIYYADSVKGRFTISRDSVKNSLYLQMNNLRAEDTAVYYCARGWTGYDAFDIWGQGTMVTVSS VL: DIQMTQSPSSLSASVGDRVTITCRASQVISNYLAWYQEKPGKVPKLLIYAASTLQSGVPSRFSGSGTGTDFTLTIRSLQPEDVATYYCQKYNNAPLTFGGGTKVEIK: 5.4
antibody B8P7 (antibody, V domains shown) VH: QVQLQESGPGLVRPSETLSLTCTVSGGSISPYYWNWIRQPPGKGLEWIGYIYYSGNTKYNPSLKSRVTISVDTSKNQFSLKLSSVSAADTAVYYCARDSCSGTCYLGDNWFDPWGQGTLVTVSS VL: QSVLTQPPSVSGAPGQRVTISCTGSSSNIGANNDVHWYQHLPGTAPKLLIYGNNHRPSGVPDRFSGSKSGTSASLAITGLQAEDEADYYCQSYDSSLSTSKVFGGGTKLTVL: 0.4
antibody E6P5 (antibody, V domains shown) VH: EVQLVESGGGLVQPGRSLRLSCSASGFTFDDHAMHWVRQAPGKGLEWVAGINWNSASIVYADSVKGRFTISRDNVKNSLYLQMNSLRADDTALYYCAKDFGLWFGESRGIDAWGRGTTVTVSS VL: DIVMTQSPLSLPVTPGEPASISCRPSQSLLHSNGYNYLNWYLQKPGRSPQLLIYLGSNRASGVPDRFSGSGSGTDFTLKISRVEAEDVGIYYCMQALQTPITFGQGTRLEIK: 232
antibody E8P5 (antibody, V domains shown) VH: EVQLVESGGGLVHPGGSLRLSCAASGFRFGTYSMNWVRQAPGKGLEWVSHISSGSSSIYYADSVKGRFTISRDSVKNSLYLQMNNLRAEDTAVYFCARGWTGYDAFDIWGQGTMVTVSS VL: DIQMTQSPSSLSASVGDRVTITCRASQVISNYLAWYQEKPGEVPKLLIYAASTLQSGVPSRFSGSGTGTDFTLTISSLQPEDVATYYCQKYNNAPLTFGGGTKVEIK: 4
antibody F11P5 (antibody, V domains shown) VH: QVQLVQSGSELKKPGASVKVSCKASAYTFTNSAINWVRQAPGQGLEWMGWINTNTGNPAYAQGFRGRFVFSLDTSVSEAYLQISNLKAEDTATYYCTVPYNFGGDHNSYYFFGVDIWGQGTTVTVSS VL: QSALTQPASVSGSPGQSITISCTGSSSDVGSYNLVSWFQQHPAKAPKVMIYEGTKRPSGVSDRFSGSKSGNTASLTISGLQAEDEADYYCCSYAGSNTFVFGTGTKVSVL: 1560
